B1: HDV Ribozyme (parent)
chain: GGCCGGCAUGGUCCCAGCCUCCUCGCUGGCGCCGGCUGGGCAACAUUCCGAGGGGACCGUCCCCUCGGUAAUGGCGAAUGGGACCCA

# Variants of: B1
# ASSAY_DETAILS: self-cleavage, relative activity (ratio to wild type); higher = more cleavage; co-transcriptional
QUANTITY: self-cleavage
Give bare numbers.

Sample records with self-cleavage:
U9A C15A :: 0.677
G29A G73A :: 0.143
C21U A78U :: 0.148

Please report self-cleavage for every entry that follows.
1. G38C A71U
2. A77U C85G
3. G39U G54C

[0.0449, 0.299, 0.76]

Please report self-cleavage for every entry that follows.
1. G5U G82A
2. A56U C84A

1. 0.185
2. 0.895
